Origin of measurements: the Kinase Knowledgebase extract (Sharma et al. 2016)

inhibition by entry:
Target: MAPK14 (human) (UniProt Q16539)
Sequence (Q16539 whole entry, looked up): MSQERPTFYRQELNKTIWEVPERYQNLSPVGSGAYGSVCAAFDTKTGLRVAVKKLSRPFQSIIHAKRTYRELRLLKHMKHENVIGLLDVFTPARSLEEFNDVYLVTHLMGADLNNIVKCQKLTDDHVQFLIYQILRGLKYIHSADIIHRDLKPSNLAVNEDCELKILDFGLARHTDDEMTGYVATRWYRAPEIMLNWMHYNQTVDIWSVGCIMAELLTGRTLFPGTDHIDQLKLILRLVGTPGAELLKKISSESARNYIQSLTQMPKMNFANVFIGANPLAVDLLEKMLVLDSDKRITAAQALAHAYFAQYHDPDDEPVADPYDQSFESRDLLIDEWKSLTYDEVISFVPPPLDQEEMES
Assay: Inhibition of LPS Stimulated TNF Production by U937 Cells
Settings: concentration not given here
Field format: number, assumed %, no unit text.

[[record]]
compound = "Cc1ccc(S(=O)(=O)N[C@@H](Cc2ccccc2)C(=O)N[C@H](C)c2[nH]nc(-c3ccc(F)cc3)c2-c2ccncc2)cc1"
quantityname = "inhibition"
uom = "%"
recordednumber = 10

[[record]]
compound = "CN(C)c1ccc(CNC(=O)NCCCc2[nH]nc(-c3ccc(F)cc3)c2-c2ccncc2)cc1"
quantityname = "inhibition"
uom = "%"
recordednumber = 15

[[record]]
compound = "CCC(C(=O)NCc1[nH]nc(-c2ccc(F)cc2)c1-c1ccncc1)c1ccccc1 (stereo not drawn)"
quantityname = "inhibition"
uom = "%"
recordednumber = 76

[[record]]
compound = "O=S(=O)(NCc1[nH]nc(-c2ccc(F)cc2)c1-c1ccncc1)c1ccc(Cl)cc1"
quantityname = "inhibition"
uom = "%"
recordednumber = 37

[[record]]
compound = "C[C@@H](NS(=O)(=O)c1cccc2cnccc12)c1[nH]nc(-c2ccc(F)cc2)c1-c1ccncc1"
quantityname = "inhibition"
uom = "%"
recordednumber = 74


Reported inhibition ( "C[C@@H](NC(=O)Nc1cccc(F)c1)c1[nH]nc(-c2ccc(F)cc2)c1-c1ccncc1" ) = 27

Reported inhibition ( "C[C@@H](NC(=O)N[C@H](C)c1[nH]nc(-c2ccc(F)cc2)c1-c1ccncc1)c1ccccc1" ) = 28

Reported inhibition ( "CCOC(=O)CCNC(=O)NCCc1[nH]nc(-c2ccc(F)cc2)c1-c1ccncc1" ) = 34

Reported inhibition ( "COc1ccc(Cl)cc1S(=O)(=O)N[C@H](C)c1[nH]nc(-c2ccc(F)cc2)c1-c1ccncc1" ) = 87

Reported inhibition ( "O=S(=O)(Cc1ccccc1)NCCc1[nH]nc(-c2ccc(F)cc2)c1-c1ccncc1" ) = 58

Reported inhibition ( "C[C@H](NS(=O)(=O)c1cc(S(=O)(=O)c2ccccc2)cs1)c1[nH]nc(-c2ccc(F)cc2)c1-c1ccncc1" ) = 90

Reported inhibition ( "CC(C)c1cc(C(C)C)c(C(=O)N[C@@H](C)c2[nH]nc(-c3ccc(F)cc3)c2-c2ccncc2)c(C(C)C)c1" ) = 42

Reported inhibition ( "C[C@@H](NS(=O)(=O)c1cccc(Br)c1)c1[nH]nc(-c2ccc(F)cc2)c1-c1ccncc1" ) = 95

Reported inhibition ( "CCOC(=O)NC(=O)NCc1[nH]nc(-c2ccc(F)cc2)c1-c1ccncc1" ) = 24

Reported inhibition ( "COC(=O)c1ccccc1NC(=O)NCCc1[nH]nc(-c2ccc(F)cc2)c1-c1ccncc1" ) = 31

Reported inhibition ( "Cc1noc(C)c1S(=O)(=O)NCc1[nH]nc(-c2ccc(F)cc2)c1-c1ccncc1" ) = 1

Reported inhibition ( "COc1ccc(CC(=O)NCCc2[nH]nc(-c3ccc(F)cc3)c2-c2ccncc2)cc1" ) = 42

Reported inhibition ( "O=S(=O)(NCc1[nH]nc(-c2ccc(F)cc2)c1-c1ccncc1)c1cc2nnoc2c2ccccc12" ) = 32
